- measured-on: Epidermal growth factor receptor (Homo sapiens, UniProt P00533, C797S/L858R/T790M)
- Sequence (P00533 25-1210 T790M/C797S/L858R limits assumed): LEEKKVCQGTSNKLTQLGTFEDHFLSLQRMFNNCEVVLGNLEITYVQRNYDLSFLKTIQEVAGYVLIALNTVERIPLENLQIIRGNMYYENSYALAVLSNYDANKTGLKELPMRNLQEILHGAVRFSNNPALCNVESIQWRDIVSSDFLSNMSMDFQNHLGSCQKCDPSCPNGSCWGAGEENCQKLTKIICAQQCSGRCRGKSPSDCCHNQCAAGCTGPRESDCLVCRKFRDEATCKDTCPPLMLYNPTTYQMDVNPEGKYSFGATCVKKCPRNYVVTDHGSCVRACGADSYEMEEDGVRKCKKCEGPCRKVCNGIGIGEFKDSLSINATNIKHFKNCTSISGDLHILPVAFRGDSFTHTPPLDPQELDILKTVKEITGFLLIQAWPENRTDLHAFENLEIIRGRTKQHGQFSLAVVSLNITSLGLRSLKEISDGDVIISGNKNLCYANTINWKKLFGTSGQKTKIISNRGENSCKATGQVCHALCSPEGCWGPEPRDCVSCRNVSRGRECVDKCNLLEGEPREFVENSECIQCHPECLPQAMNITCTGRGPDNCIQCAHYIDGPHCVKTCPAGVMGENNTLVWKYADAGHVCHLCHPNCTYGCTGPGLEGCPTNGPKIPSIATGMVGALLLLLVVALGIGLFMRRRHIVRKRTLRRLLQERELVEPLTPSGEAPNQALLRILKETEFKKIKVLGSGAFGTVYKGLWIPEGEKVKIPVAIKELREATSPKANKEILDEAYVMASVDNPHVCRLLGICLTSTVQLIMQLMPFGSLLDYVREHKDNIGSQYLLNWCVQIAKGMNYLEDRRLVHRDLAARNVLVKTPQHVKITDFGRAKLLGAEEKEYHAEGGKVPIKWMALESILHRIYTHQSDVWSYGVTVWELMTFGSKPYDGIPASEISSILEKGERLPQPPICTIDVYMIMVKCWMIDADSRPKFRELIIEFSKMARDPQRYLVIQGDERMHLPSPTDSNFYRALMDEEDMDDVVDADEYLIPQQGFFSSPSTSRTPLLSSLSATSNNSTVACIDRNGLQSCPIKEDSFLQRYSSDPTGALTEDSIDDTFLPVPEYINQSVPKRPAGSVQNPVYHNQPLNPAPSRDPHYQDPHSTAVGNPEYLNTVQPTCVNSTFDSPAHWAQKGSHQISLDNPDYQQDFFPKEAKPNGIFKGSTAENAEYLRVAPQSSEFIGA
- experiment-description: Inhibition of EGFR L858R/T790M/C797S triple mutant (unknown origin) using TK as substrate incubated for 120 mins in the presence of ATP by HTRF assay
measured-parameter: IC50 (nM)

Inquiry: // IC50 lookup, key: "CCOC1CN(C2CCN(c3cc(OC)c(Nc4ncc(Br)c(Nc5ccc6ncnn6c5P(C)(C)=O)n4)cc3CC)CC2)C1"
Reply text: 0.67

(a) CCc1cc(Nc2ncc(Br)c(Nc3ccc4c(c3P(C)(C)=O)OCCO4)n2)c(OC)cc1N1CCC(N2CC(N(C)C)C2)CC1
(b) COc1cc(N2CCC(N3CCCOCC3)CC2)c(C)cc1Nc1ncc(Br)c(Nc2ccc3c(c2P(C)(C)=O)OCCO3)n1
Inquiry: Compare the recorded IC50 of a and b ; state which is larger. Choose, then provide that item's label.
Reply text: b

###

- measured-on: CDK9/cyclin T1 (Homo sapiens)
- Sequence (O60563 whole entry): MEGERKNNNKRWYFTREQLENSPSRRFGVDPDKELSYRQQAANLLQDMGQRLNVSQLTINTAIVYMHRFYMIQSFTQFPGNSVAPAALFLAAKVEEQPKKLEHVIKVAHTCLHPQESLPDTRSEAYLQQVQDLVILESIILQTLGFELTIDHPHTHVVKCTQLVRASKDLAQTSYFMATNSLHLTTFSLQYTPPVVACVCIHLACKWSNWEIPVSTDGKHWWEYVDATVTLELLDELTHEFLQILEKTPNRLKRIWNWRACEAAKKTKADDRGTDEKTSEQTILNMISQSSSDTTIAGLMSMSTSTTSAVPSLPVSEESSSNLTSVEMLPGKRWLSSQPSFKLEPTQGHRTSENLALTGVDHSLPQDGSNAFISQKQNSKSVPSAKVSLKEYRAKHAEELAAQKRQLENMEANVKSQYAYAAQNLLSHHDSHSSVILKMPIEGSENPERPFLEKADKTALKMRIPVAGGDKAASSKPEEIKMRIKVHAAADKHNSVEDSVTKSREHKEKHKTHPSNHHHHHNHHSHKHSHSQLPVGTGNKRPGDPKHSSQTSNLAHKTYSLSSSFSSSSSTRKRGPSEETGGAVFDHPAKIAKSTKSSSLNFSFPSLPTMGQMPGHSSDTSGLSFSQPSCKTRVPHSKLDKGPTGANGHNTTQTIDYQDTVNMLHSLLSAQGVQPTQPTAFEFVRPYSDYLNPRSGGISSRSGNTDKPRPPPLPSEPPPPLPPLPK
- Sequence (P50750 whole entry): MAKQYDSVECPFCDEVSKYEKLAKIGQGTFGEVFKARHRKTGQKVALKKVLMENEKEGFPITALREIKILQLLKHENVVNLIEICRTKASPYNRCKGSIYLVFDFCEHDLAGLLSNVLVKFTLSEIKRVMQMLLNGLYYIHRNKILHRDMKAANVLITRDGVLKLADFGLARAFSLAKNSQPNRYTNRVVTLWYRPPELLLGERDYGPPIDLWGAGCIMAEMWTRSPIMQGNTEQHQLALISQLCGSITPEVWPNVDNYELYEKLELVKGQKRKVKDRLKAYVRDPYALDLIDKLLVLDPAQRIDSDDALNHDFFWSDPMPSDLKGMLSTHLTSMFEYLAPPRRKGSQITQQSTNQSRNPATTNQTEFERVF
- experiment-description: Inhibition of CDK9/Cyclin T1 (unknown origin)
measured-parameter: IC50 (µM)
# output: bare number, implied unit µM

Inquiry: Query the reported IC50 for CDK9/cyclin T1 (Homo sapiens); item: "COCC1CN(C2CCN(c3cc(OC)c(Nc4ncc(Br)c(Nc5ccc6c(c5P(C)(C)=O)OCCO6)n4)cc3C)CC2)C1"
Reply text: 4.08

###

- experiment-description: AUC(0 to infinity) in mouse at 5 mg/kg measured upto 24 hrs by LC-MS/MS analysis
- Format: ADME, organism-based
- Parameters: dose 5 mg/kg, time < 24 hrs
- condition-details: in vivo
measured-parameter: AUC(0-inf) (ng·h/mL)

Inquiry: // AUC(0-inf) lookup, key: "CCO[C@@H]1CCN(C2CCN(c3cc(OC)c(Nc4ncc(Br)c(Nc5ccc6c(c5P(C)(C)=O)OCCO6)n4)cc3C)CC2)C1"
Reply text: 11200

Inquiry: // AUC(0-inf) lookup, key: "CCOC1CN(C2CCN(c3cc(OC)c(Nc4ncc(Br)c(Nc5ccc6c(c5P(C)(C)=O)OCCO6)n4)cc3C)CC2)C1"
Reply text: 25300

Inquiry: // AUC(0-inf) lookup, key: "COc1cc(N2CCC(N3CC(N(C)C)C3)CC2)c(C)cc1Nc1ncc(Br)c(Nc2ccc3c(c2P(C)(C)=O)OCCO3)n1"
Reply text: 16500

Inquiry: // AUC(0-inf) lookup, key: "COCC1CN(C2CCN(c3cc(OC)c(Nc4ncc(Br)c(Nc5ccc6c(c5P(C)(C)=O)OCCO6)n4)cc3C)CC2)C1"
Reply text: 11600

(I) CCc1cc(Nc2ncc(Br)c(Nc3ccc4c(c3P(C)(C)=O)OCCO4)n2)c(OC)cc1N1CCC(N2CC(N(C)C)C2)CC1
(II) CCc1cc(Nc2ncc(Br)c(Nc3ccc4c(c3P(C)(C)=O)OCO4)n2)c(OC)cc1N1CCC(N2CC(N(C)C)C2)CC1
Inquiry: Of I versus II , which is the one with smaller reported AUC(0-inf)? Choose, then provide that item's label.
Reply text: II
(II: 12500 ng·h/mL, I: 21400 ng·h/mL)

###

- experiment-description: AUC(0 to t) in mouse at 5 mg/kg measured upto 24 hrs by LC-MS/MS analysis
- Assay type: ADME, organism-based
- Parameters: time < 24 hrs, dose 5 mg/kg
- condition-details: in vivo
measured-parameter: AUC(0-t) at 24 h (ng·h/mL)

Inquiry: // AUC(0-t) at 24 h lookup, key: "CCc1cc(Nc2ncc(Br)c(Nc3ccc4c(c3P(C)(C)=O)OCO4)n2)c(OC)cc1N1CCC(N2CC(N(C)C)C2)CC1"
Reply text: 12300

Inquiry: // AUC(0-t) at 24 h lookup, key: "COCC1CN(C2CCN(c3cc(OC)c(Nc4ncc(Br)c(Nc5ccc6c(c5P(C)(C)=O)OCCO6)n4)cc3C)CC2)C1"
Reply text: 11600

Inquiry: // AUC(0-t) at 24 h lookup, key: "CCc1cc(Nc2ncc(Br)c(Nc3ccc4c(c3P(C)(C)=O)OCCO4)n2)c(OC)cc1N1CCC(N2CC(N(C)C)C2)CC1"
Reply text: 21000

Inquiry: // AUC(0-t) at 24 h lookup, key: "CCO[C@@H]1CCN(C2CCN(c3cc(OC)c(Nc4ncc(Br)c(Nc5ccc6c(c5P(C)(C)=O)OCCO6)n4)cc3C)CC2)C1"
Reply text: 11100

(A) COc1cc(N2CCC(N3CC(N(C)C)C3)CC2)c(C)cc1Nc1ncc(Br)c(Nc2ccc3c(c2P(C)(C)=O)OCCO3)n1
(B) CCOC1CN(C2CCN(c3cc(OC)c(Nc4ncc(Br)c(Nc5ccc6c(c5P(C)(C)=O)OCCO6)n4)cc3C)CC2)C1
Inquiry: Of A versus B , which is the one with smaller reported AUC(0-t) at 24 h? Choose, then provide that item's label.
Reply text: A

###

- measured-on: Epidermal growth factor receptor (Homo sapiens, UniProt P00533, C797S/L858R/T790M)
- experiment-description: Inhibition of EGFR L858R/T790M/C797S triple mutant (unknown origin) using TK as substrate incubated for 120 mins in the presence of ATP by HTRF assay
pIC50: −log10 of the molar value.
measured-parameter: pIC50

Inquiry: // pIC50 lookup, key: "CCc1cc(Nc2ncc(Br)c(Nc3ccc4nccnc4c3P(C)(C)=O)n2)c(OC)cc1N1CCC(N2CCCN(C)CC2)CC1"
Reply text: 9.57

Inquiry: // pIC50 lookup, key: "CCO[C@@H]1CCN(C2CCN(c3cc(OC)c(Nc4ncc(Br)c(Nc5ccc6c(c5P(C)(C)=O)OCCO6)n4)cc3C)CC2)C1"
Reply text: 9.39

Inquiry: // pIC50 lookup, key: "CCc1cc(Nc2ncc(Br)c(Nc3ccn4ncnc4c3P(C)(C)=O)n2)c(OC)cc1N1CCC(N2CCOCC2)CC1"
Reply text: 9.03

(1) COc1cc(N2CCC(N3CC[C@H](N(C)C)C3)CC2)c(C)cc1Nc1ncc(Br)c(Nc2ccc3c(c2P(C)(C)=O)OCCO3)n1
(2) CCN(C)C1CN(C2CCN(c3cc(OC)c(Nc4ncc(Br)c(Nc5ccc6c(c5P(C)(C)=O)OCCO6)n4)cc3C)CC2)C1
Inquiry: Compare the recorded pIC50 of 1 and 2 ; state which is larger. Choose, then provide that item's label.
Reply text: 1
(1: 9.82, 2: 9.55)

###

- experiment-description: Half-life in mouse at 5 mg/kg measured upto 24 hrs by LC-MS/MS analysis
- Format: ADME, organism-based
- condition-details: in vivo
measured-parameter: half-life (h)

Inquiry: // half-life lookup, key: "CCc1cc(Nc2ncc(Br)c(Nc3ccc4c(c3P(C)(C)=O)OCCO4)n2)c(OC)cc1N1CCC(N2CC(N(C)C)C2)CC1"
Reply text: 4

Inquiry: // half-life lookup, key: "CCOC1CN(C2CCN(c3cc(OC)c(Nc4ncc(Br)c(Nc5ccc6c(c5P(C)(C)=O)OCCO6)n4)cc3C)CC2)C1"
Reply text: 3.2

Inquiry: // half-life lookup, key: "CCc1cc(Nc2ncc(Br)c(Nc3ccc4c(c3P(C)(C)=O)OCO4)n2)c(OC)cc1N1CCC(N2CC(N(C)C)C2)CC1"
Reply text: 4.2

(P) CCO[C@@H]1CCN(C2CCN(c3cc(OC)c(Nc4ncc(Br)c(Nc5ccc6c(c5P(C)(C)=O)OCCO6)n4)cc3C)CC2)C1
(Q) COc1cc(N2CCC(N3CC(N(C)C)C3)CC2)c(C)cc1Nc1ncc(Br)c(Nc2ccc3c(c2P(C)(C)=O)OCCO3)n1
Inquiry: Of P versus Q , which is the one with smaller reported half-life? Choose, then provide that item's label.
Reply text: P
(P: 3.5 h, Q: 5.6 h)

###

- measured-on: Phosphatidylinositol 4,5-bisphosphate 3-kinase catalytic subunit alpha isoform (Homo sapiens, UniProt P42336)
- Sequence (P42336 whole entry, canonical isoform): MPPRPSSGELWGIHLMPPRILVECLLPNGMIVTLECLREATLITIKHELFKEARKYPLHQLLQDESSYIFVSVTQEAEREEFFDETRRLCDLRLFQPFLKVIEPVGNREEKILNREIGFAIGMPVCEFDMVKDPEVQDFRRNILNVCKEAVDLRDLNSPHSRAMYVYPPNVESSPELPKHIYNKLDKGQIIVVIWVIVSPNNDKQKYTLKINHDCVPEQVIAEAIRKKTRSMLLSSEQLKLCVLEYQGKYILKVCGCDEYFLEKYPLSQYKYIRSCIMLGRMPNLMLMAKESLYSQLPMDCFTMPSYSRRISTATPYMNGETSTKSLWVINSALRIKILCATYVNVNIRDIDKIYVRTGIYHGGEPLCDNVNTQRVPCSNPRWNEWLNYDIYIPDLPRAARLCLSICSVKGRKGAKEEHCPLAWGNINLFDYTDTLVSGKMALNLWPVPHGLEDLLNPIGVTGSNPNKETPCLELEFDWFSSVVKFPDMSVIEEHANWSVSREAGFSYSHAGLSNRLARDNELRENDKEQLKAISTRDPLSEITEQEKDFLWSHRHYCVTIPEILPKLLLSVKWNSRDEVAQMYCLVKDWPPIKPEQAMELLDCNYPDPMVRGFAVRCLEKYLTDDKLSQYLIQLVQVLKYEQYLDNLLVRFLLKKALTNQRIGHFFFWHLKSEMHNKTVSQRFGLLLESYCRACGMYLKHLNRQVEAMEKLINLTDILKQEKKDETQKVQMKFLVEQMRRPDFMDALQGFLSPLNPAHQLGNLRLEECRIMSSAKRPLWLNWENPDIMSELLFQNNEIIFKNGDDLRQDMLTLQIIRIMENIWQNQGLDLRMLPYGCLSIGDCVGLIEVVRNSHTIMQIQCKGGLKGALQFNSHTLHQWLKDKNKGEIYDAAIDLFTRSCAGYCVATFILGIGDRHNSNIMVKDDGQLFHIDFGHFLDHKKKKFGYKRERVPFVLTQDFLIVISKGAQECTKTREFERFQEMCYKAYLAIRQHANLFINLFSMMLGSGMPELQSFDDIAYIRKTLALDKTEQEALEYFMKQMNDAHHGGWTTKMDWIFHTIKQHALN
- experiment-description: Inhibition of PI3Kalpha (unknown origin)
pIC50: −log10 of the molar value.
measured-parameter: pIC50

Inquiry: // pIC50 lookup, key: "COCC1CN(C2CCN(c3cc(OC)c(Nc4ncc(Br)c(Nc5ccc6c(c5P(C)(C)=O)OCCO6)n4)cc3C)CC2)C1"
Reply text: < 5.00

###

- measured-on: Epidermal growth factor receptor (Homo sapiens, UniProt P00533, C797S/L858R/T790M)
- experiment-description: Inhibition of EGFR L858R/T790M/C797S triple mutant (unknown origin) using TK as substrate incubated for 120 mins in the presence of ATP by HTRF assay
pIC50: −log10 of the molar value.
measured-parameter: pIC50

Inquiry: // pIC50 lookup, key: "COc1cc(N2CCC(N3CCCN(C)CC3)CC2)c(C)cc1Nc1ncc(Br)c(Nc2ccc3c(c2P(C)(C)=O)OCCO3)n1"
Reply text: 10.00

Inquiry: // pIC50 lookup, key: "CCc1cc(Nc2ncc(Br)c(Nc3ccc4nccnc4c3P(C)(C)=O)n2)c(OC)cc1N1CCC(N2CC(N(C)C)C2)CC1"
Reply text: 10.10

Inquiry: // pIC50 lookup, key: "CCc1cc(Nc2ncc(Br)c(Nc3ccc4c(c3P(C)(C)=O)OCCO4)n2)c(OC)cc1N1CCC(N2CC(CC#N)C2)CC1"
Reply text: 9.39

Inquiry: // pIC50 lookup, key: "CCc1cc(Nc2ncc(Br)c(Nc3ccc4c(c3P(C)(C)=O)OCCO4)n2)c(OC)cc1N1CCC(N2CC(COC)C2)CC1"
Reply text: 9.92

Inquiry: // pIC50 lookup, key: "CCc1cc(Nc2ncc(Br)c(Nc3ccc4ncnn4c3P(C)(C)=O)n2)c(OC)cc1N1CCC(N2CC(COC)C2)CC1"
Reply text: 9.08

Inquiry: // pIC50 lookup, key: "COc1cc(N2CCC(N3CC(N(C)C)C3)CC2)c(C)cc1Nc1ncc(Br)c(Nc2ccc3c(c2P(C)(C)=O)OCCO3)n1"
Reply text: 9.66

(I) CCc1cc(Nc2ncc(Br)c(Nc3ccc4c(c3P(C)(C)=O)OCO4)n2)c(OC)cc1N1CCC(N2CC(N(C)C)C2)CC1
(II) CCc1cc(Nc2ncc(Br)c(Nc3ccn4ncnc4c3P(C)(C)=O)n2)c(OC)cc1N1CCC(N2CCN(CC)CC2)CC1
Inquiry: Of I versus II , which is the one with smaller reported pIC50? Choose, then provide that item's label.
Reply text: II
